Assay: Measurement of LogP values by HPLC on reversed phase columns (EEC directive 79/831 Annex V.A8)
Assay type: physicochemical
Marks after values point to notes of the source that are not given here.
Below, each of the compounds is paired with its reported LogP value.

- COc1ccc(CNc2nsc(C(=O)NCc3ccc(OC)cn3)c2Cl)cc1: 2.45[a]

Quick note, LogP for COc1ccc(CNc2nsc(C(=O)N(Cc3ccc(Cl)cc3Cl)CC3CC3)c2Cl)cc1 landed at 5.45[a]

Lab note: measured LogP of Nc1nsc(C(=O)NC2CCCC2c2ccccc2)c1Cl (centres unmarked) was 2.71[a]

###

Experiment: Measurement of LogP values by HPLC on reversed phase columns (EEC directive 79/831 Annex V.A8)
Format: physicochemical
Protocol: The abbreviations and numerations of the substituent positions used in the context of the present invention and in the following Tables are explained in detail in the section Examples hereinafter. Also, the LogP values indicated in the following Tables are explained in detail in the section Examples hereinafter. […] Lambda-max-values were determined using UV-spectra from 200 nm to 400 nm and the peak values of the chromatographic signals
Marks after values point to notes of the source that are not given here.
MEASUREMENT KIND: LogP

# annotated cases, reported LogP shown
- CCC(c1cc(Cl)cc(Cl)c1)N(C(=O)c1snc(N)c1Cl)C1CC1 (stereo not shown) [I-955]: 4.17[a]
- Nc1nsc(C(=O)NCC2CCCCC2)c1Cl [I-002]: 2.40[a]

Reported LogP for Cc1c(N)nsc1C(=O)NCC1CCCCC1 [I-042] was 2.01[a]

Lookup result for Cc1c(N)nsc1C(=O)NCc1cc(F)c(F)c(F)c1 [I-584] ; measured LogP: 1.92[a]

LogP reading for COc1ccc(CNc2nsc(C(=O)NCc3ccnc(OC)n3)c2Cl)cc1 [I-1316] : 2.56[a]

The compound listed as COc1ccc(CNc2nsc(C(=O)N[C@@H]3CCCC[C@@H]3C)c2Cl)cc1 (relative stereo) [I-1550] has a reported LogP of 4.18[a]

The recorded LogP for CC(=O)N(C(C)=O)c1nsc(C(=O)N[C@@H](C)C2CCCCC2)c1Cl [I-094] is 3.73[a]

###

Assay: Measurement of LogP values by HPLC on reversed phase columns (EEC directive 79/831 Annex V.A8)
Format: physicochemical
Marks after values point to notes of the source that are not given here.
MEASUREMENT KIND: LogP

// below: answered molecules
- Cc1ccc(C2(C)CC2)c(CNC(=O)c2snc(N)c2Cl)c1: 3.29[a]
- CCC(c1ccc(Cl)cc1Cl)N(C(=O)c1snc(N)c1Cl)C1CC1 (stereo not shown): 3.90[a]
- O=C(O)CCNc1nsc(C(=O)NCC2CCCCC2)c1Cl: 2.42[a]

So, COc1ccc(CNc2nsc(C(=O)NC3CCC(C4CCCCC4)CC3)c2Cl)cc1 (stereo not shown) ? Its LogP was 6.25[a]

Value of measured LogP for the entry Nc1nsc(C(=O)NC2CCCCC2)c1C1CC1 : 2.00[a]

Documented LogP of CC(NC(=O)c1snc(N(Cc2ccccc2)Cc2ccccc2)c1-c1ccc(F)cc1)C1CCCCC1 (stereo not shown) : 6.63[a]

The molecule identified as C[C@H](NC(=O)c1snc(Nc2ccccc2)c1Cl)C1CCCCC1 registered its LogP at 4.78[a]

Sample CCC(=O)Nc1nsc(C(=O)NCc2ccc(F)cc2OC)c1Cl ; LogP observed: 2.10[a]

Lookup result for COc1ccc(CNc2nsc(C(=O)NC3(c4ccccc4Br)CC3)c2Cl)cc1 ; measured LogP: 4.40[a]

// recorded LogP for COc1ccc(CNc2nsc(C(=O)NC3CCc4cc(C(C)(C)C)ccc43)c2Cl)cc1 (stereo not shown) : 5.22[a]

The recorded LogP for entry COc1ccc(CNc2nsc(C(=O)NCc3ccncc3C)c2Cl)cc1 equals 1.52[a]

Notebook: Nc1nsc(C(=O)NCC2CC=C(F)CC2)c1F (stereo not shown) , LogP read as 1.69[a]

// recorded LogP for Cc1c(N)nsc1C(=O)NCc1ccc(F)cc1 : 1.52[a]

Noted for COc1ccc(CNc2nsc(C(=O)N(Cc3ccc(Cl)cc3Cl)C(C)C)c2Cl)cc1 : its LogP reads 5.39[a]

// recorded LogP for Nc1cc(C(=O)NCC2CCCCC2)sn1 : 1.92[a]

Short answer for COc1ccc(CNc2nsc(C(=O)NCc3ccc(Cl)c(C(F)(F)F)c3)c2Cl)cc1 : LogP was 4.34[a]

Looking up CCn1ncc(CNC(=O)c2snc(NCc3ccc(OC)cc3)c2Cl)c1C(F)F , I see its LogP listed as 3.09[a]

Field LogP (entry Nc1nsc(C(=O)NCC2(O)CCCCC2)c1Cl ) reads 1.51[a]

GET /value?item= C[C@H]1[C@H](CNC(=O)c2snc(N)c2Cl)CCC[C@H]1C (relative stereo) &field=LogP returns 3.10[a]
